Sourced from patent US20250179161A1

Biological target: T1, Amyloid Beta (Aβ) 1-42 (human)
T1 construct: The same peptide was used in several aggregation states: fibrils, a heterogeneous aggregate mixture, and soluble oligomers or aggregates; also called Aβ42; Aβ 42
T1 sequence (peptide, as listed by the source): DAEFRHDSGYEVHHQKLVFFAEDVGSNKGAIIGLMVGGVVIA
Assay: SPR (BIAcore T200), Aβ1-42 fibrils immobilized on CM5, antibody as analyte, global 1:1 fit
Listed next: entries and their corresponding kon.

# binder, kon
rows = [
    ("h2726 (antibody, V domains shown, Humanized IgG, detected with anti-human IgG) VH: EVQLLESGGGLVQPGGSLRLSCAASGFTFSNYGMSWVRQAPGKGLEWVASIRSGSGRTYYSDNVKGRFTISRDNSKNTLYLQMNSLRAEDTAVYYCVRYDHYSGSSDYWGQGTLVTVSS VL: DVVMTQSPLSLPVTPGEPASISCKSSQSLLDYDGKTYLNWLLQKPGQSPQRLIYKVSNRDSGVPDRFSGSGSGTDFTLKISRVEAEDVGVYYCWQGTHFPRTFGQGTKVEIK", "393000 M⁻¹ s⁻¹"),
    ("h2931 (antibody, V domains shown, Humanized IgG) VH: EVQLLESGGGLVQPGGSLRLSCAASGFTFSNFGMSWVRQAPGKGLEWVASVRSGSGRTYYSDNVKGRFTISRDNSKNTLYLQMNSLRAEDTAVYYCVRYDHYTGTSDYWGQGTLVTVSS VL: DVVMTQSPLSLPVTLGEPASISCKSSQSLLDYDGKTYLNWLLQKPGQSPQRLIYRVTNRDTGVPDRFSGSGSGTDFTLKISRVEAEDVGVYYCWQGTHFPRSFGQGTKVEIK", "335000 M⁻¹ s⁻¹"),
    ("h2731 (antibody, V domains shown, Humanized IgG) VH: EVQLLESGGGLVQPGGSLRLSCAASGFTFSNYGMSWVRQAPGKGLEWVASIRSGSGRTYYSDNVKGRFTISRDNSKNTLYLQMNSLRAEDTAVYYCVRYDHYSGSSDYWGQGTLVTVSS VL: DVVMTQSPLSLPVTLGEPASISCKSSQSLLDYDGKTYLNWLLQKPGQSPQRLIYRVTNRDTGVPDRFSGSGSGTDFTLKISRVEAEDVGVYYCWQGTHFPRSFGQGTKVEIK", "372000 M⁻¹ s⁻¹"),
    ("h2831 (antibody, V domains shown, Humanized IgG) VH: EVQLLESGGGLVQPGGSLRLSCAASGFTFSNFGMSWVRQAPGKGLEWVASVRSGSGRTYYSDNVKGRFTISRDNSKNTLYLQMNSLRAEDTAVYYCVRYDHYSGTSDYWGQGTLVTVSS VL: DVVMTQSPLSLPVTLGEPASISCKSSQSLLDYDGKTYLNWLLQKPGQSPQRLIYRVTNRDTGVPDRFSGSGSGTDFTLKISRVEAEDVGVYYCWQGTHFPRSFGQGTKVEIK", "265000 M⁻¹ s⁻¹"),
]
